Examples of compounds with documented pIC50 follow.
Sequence of the target: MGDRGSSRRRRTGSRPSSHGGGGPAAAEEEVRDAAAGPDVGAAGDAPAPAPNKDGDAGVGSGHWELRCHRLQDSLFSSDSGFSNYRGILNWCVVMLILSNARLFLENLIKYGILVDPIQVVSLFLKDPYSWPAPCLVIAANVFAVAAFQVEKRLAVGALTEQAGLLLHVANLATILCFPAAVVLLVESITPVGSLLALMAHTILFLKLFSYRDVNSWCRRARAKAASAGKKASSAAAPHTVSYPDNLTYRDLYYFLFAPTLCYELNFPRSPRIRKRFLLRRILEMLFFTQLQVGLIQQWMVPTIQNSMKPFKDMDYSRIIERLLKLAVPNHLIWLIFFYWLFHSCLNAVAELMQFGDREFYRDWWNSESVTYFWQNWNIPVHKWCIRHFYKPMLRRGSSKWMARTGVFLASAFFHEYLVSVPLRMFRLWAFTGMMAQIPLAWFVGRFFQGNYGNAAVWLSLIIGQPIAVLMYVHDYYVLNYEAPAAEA
pIC50: −log10 of the molar value.

Compound: CC1(C)Oc2ncnc(N)c2N=C1c1ccc2c(c1)CC(C(=O)O)C2 (stereo not shown)
Readout Name: pIC50
Recorded Result: < 7.00
//
Compound: CC1(C)Oc2ncnc(N)c2N=C1c1ccc([C@@H]2CCC[C@H](CC(=O)O)C2)cc1
Readout Name: pIC50
Recorded Result: 7.00 to 8.00
//
Compound: CC1(C)Oc2ncnc(N)c2N=C1c1ccc(C2CCNCC2)cc1
Readout Name: pIC50
Recorded Result: < 7.00

**Q:** What pIC50 value was documented for this compound, "Cc1csc(NC[C@H]2CC[C@H](c3ccc(C4=Nc5c(N)ncnc5OC4(C)C)cc3)CC2)n1" ?
**A:** 7.00 to 8.00
